System: Caco-2
Test Method Notes: cell viability relative to DMSO; higher = less toxic
Condition: 72 h; 10000 nM
Measured Property: cell viability (%)
Supply the numeric figure in %, leaving out any unit text.

# annotated cases, reported cell viability shown
Quick one: cell viability for CCOC(=O)[C@H](CCc1ccccc1)N[C@@H](C)C(=O)N1Cc2ccccc2C[C@H]1C(=O)O [quinapril] ?
88.5

Quick one: cell viability for CC[C@H](C)[C@H](N)C1=N[C@H](C(=O)N[C@@H](CC(C)C)C(=O)N[C@H](CCC(=O)O)C(=O)N[C@H](C(=O)N[C@H]2CCCCNC(=O)[C@H](CC(N)=O)NC(=O)[C@@H](CC(=O)O)NC(=O)[C@H](Cc3cnc[nH]3)NC(=O)[C@@H](Cc3ccccc3)NC(=O)[C@H]([C@@H](C)CC)NC(=O)[C@@H](CCCN)NC2=O)[C@@H](C)CC)CS1 [bacitracin] ?
119

Quick one: cell viability for NC(=O)NC(=O)Cc1ccccc1 [phenacemide] ?
94.8

Quick one: cell viability for CC(C)(N)CC12CC3CC(CC(C3)C1)C2 [somantadine] ?
93.4

Quick one: cell viability for Cc1ccc2c(-c3ccccc3)nc(=O)n(C(C)C)c2c1 [proquazone] ?
99.8

Next:
Quick one: cell viability for Cc1cc(OCc2nc(-c3ccccc3Cl)cs2)ccc1OCC(=O)O [GPR120-modulator-1] ?
92.8

Quick one: cell viability for C[S+](C)CC[C@H](N)C(=O)O [cabagin] ?
99.6

====

System: Vero E6
Test Method Notes: cell viability relative to DMSO; higher = less toxic
Condition: 72 h; 1000 nM
Each entry below carries its recorded cell viability.
Supply the numeric figure in %, leaving out any unit text.

# annotated cases, reported cell viability shown
Quick one: cell viability for CCCCNc1ncc(-c2ccc(CN3CCOCC3)cn2)c(N[C@H]2CC[C@H](O)CC2)n1 ?
91.9

Quick one: cell viability for C=C[C@](C)(O)CC[C@@H]1[C@@]2(C)CCCC(C)(C)[C@@H]2CC[C@@]1(C)O ?
99.6

Quick one: cell viability for CC(C)[C@@H]1C(=O)N(S(C)(=O)=O)[C@@H]2CCN(C(=O)/C=C/CN3CCCCC3)[C@H]21 ?
98.6

Quick one: cell viability for CCCC[C@H](NC(C)=O)C(=O)N[C@H]1CC(=O)NCCCC[C@@H](C(=O)O)NC(=O)[C@H](Cc2c[nH]c3ccccc23)NC(=O)[C@H](CCCNC(=N)N)NC(=O)[C@@H](Cc2ccccc2)NC(=O)[C@H](Cc2c[nH]cn2)NC1=O [bremelanotide] ?
99.3

Quick one: cell viability for CC(NCCC(c1ccccc1)c1ccccc1)c1ccccc1 (configuration not stated) ?
99.4

Next:
Quick one: cell viability for O=c1[nH]c2ccccc2n1CCCN1CCC(n2c(=O)[nH]c3cc(Cl)ccc32)CC1 ?
96.6

Quick one: cell viability for Cc1c(S(=O)(=O)O)oc2c1C(=O)C(=O)c1c-2ccc2c1CCCC2(C)C [sodium-tanshinone-II-A-sulfonate] ?
84.5

====

Test system: U2OS
Test Method Notes: cell viability relative to DMSO; higher = less toxic
Condition: 72 h; 10 nM
Measured Property: cell viability (%)
Supply the numeric figure in %, leaving out any unit text.

# annotated cases, reported cell viability shown
Quick one: cell viability for Brc1c(Br)c(Br)c2[nH]nnc2c1Br [4,5,6,7-tetrabromobenzotriazole] ?
98

Quick one: cell viability for CN(C)CCCNC(=O)c1ccc(-c2cc(O)c3ncccc3c2)cc1 [ML324] ?
98.9

Quick one: cell viability for COC(=O)c1csc(C(=O)c2c[nH]c3ccccc23)n1 [ITE] ?
104

Quick one: cell viability for CCN1CCN(c2cc(-c3ccc(F)cc3)c3c(n2)CCCCCC3)CC1 [blonanserin] ?
97.3

Quick one: cell viability for O=C(O)c1ccc(/C=C2\SC(=S)N(c3cccc(C(F)(F)F)c3)C2=O)cc1 [CFTRinh-172] ?
101

Quick one: cell viability for O=C(Nc1cnccc1Cl)N1CCN(Cc2ccc3c(c2)OC(F)(F)O3)CC1 ?
97.5

Quick one: cell viability for CCN(CC)CCOc1ccc(Nc2ncc3cc(-c4c(Cl)cccc4Cl)c(=O)n(C)c3n2)cc1 ?
104

Quick one: cell viability for O=C1CN(/N=C/c2ccc([N+](=O)[O-])o2)C(=O)N1 [nitrofurantoin] ?
97.9

Quick one: cell viability for c1cc(OCCN2CCCCC2)cc(-c2n[nH]c3ccc(-c4nnc[nH]4)cc23)c1 [CC-401] ?
96.4

Quick one: cell viability for CCCCC/N=c1\ccn(Cc2ccccc2)c2ccccc12 ?
94.4

Next:
Quick one: cell viability for COc1cc2nccc(Oc3ccc(NC(=O)NC4CC4)c(Cl)c3)c2cc1C(N)=O [lenvatinib] ?
101

Quick one: cell viability for FCc1ccc(OCCOc2ccc(Cl)cc2Cl)c(Cl)n1 ?
96.4

Quick one: cell viability for N=C(N)NC(=O)c1cnn(-c2cccc3ncccc23)c1C1CC1 [zoniporide] ?
101

Quick one: cell viability for C=CC1=C(C(=O)O)N2C(=O)[C@@H](NC(=O)/C(=N\O)c3csc(N)n3)[C@H]2SC1 [cefdinir] ?
104

Quick one: cell viability for COc1ccc(-c2cc(=O)c3c(O)c(OC)c(O)cc3o2)cc1OC [eupatilin] ?
97.3

Quick one: cell viability for COc1ccc(/C=C/C(=O)O)cc1 [trans-4-methoxycinnamic-acid] ?
96.3
